Data provenance is patent US20120258960A1.

# key: entry, value: pIC50
system: T lymphocytes; experiment: Inhibition of proliferation of PHA-stimulated T lymphocytes (tritium thymidine incorporation); format: cell-based; details: Homo sapiens, T-lymphocyte, 1 μg/ml Phytohemagglutinine, 48 hours, test compounds 0.1-250 μM, read-out: T cells IC50
# pIC50: negative log10 of molar concentration; output just the value

Molecule	pIC50
CCCCCCCCCCCCCC(=O)NC(CC(=O)NCC(C)(C)CNC(=O)C(O)C(Cc1ccccc1)NC(=O)CCCCCCCCCCCCC)Cc1cc(F)ccc1F (stereo not shown) [drawing 264]	4.01
CCCCCCCC(=O)OC(C(=O)NCCCCNC(=O)CC(N)Cc1cc(F)ccc1F)C(N)Cc1ccccc1 (stereo not shown) [drawing 256]	4.72
CN(CCCN(C)C(=O)C(O)C(N)Cc1ccccc1)C(=O)CC(N)Cc1cc(F)ccc1F (stereo not shown) [drawing 238]	4.15
NC(CNC(=O)c1cccc(NC(=O)C(O)C(N)Cc2ccc(-c3cccnc3)cc2)c1)Cc1cc(F)ccc1F (stereo not shown) [drawing 285]	4.61
CC(C)(NC(=O)CC(N)Cc1ccccc1)C(C)(C)NC(=O)C(O)C(N)Cc1ccccc1 (stereo not shown) [drawing 226]	4.79
CCCCCCCC(=O)OC(C(=O)N(C)CCCNC(=O)CC(N)Cc1cc(F)ccc1F)C(N)Cc1ccccc1 (stereo not shown) [drawing 250]	5.02
CC(C)(CCNC(=O)CC(N)Cc1cc(F)ccc1F)CNC(=O)C(O)C(N)Cc1ccccc1 (stereo not shown) [drawing 242]	3.80
CCCC(=O)NC(CC(=O)NCC(C)(C)CNC(=O)C(O)C(Cc1ccccc1)NC(=O)CCC)Cc1cc(F)ccc1F (stereo not shown) [drawing 244]	4.27

[in] Name the recorded pIC50 of the molecule listed here: CC(C)(CNC(=O)CC(N)Cc1cc(F)ccc1F)CNC(=O)C(O)C(N)Cc1ccc(-c2ccccc2)cc1 (stereo not shown) [drawing 281]
[out] 4.01

[in] Give pIC50 for CCCCCC(=O)OC(C(=O)NCC(C)(C)CNC(=O)CC(N)Cc1cc(F)ccc1F)C(N)Cc1ccccc1 (stereo not shown) [drawing 261]
[out] 4.95

====

tested on: T lymphocytes; experiment: Inhibition of proliferation of PHA-stimulated T lymphocytes (tritium thymidine incorporation); type: cell-based; conditions: Homo sapiens, T-lymphocyte, 1 μg/ml Phytohemagglutinine, 48 hours, test compounds 0.1-250 μM, read-out: T cells IC50
Quantity Measured: pIC50
Please note pIC50 is a logarithmic value: minus log10 of concentration in mol/L. Answer with that number alone.

Known pIC50 results, listed for orientation:
Molecule	pIC50
CCCC(=O)OC(C(=O)NCC(C)(C)CNC(=O)CC(N)Cc1cc(F)ccc1F)C(N)Cc1ccccc1 (stereo not shown) [drawing 260]	4.26
CC(C(=O)NCC(C)(C)CNC(=O)C(O)C(N)Cc1ccccc1)C(N)Cc1cc(F)ccc1F (stereo not shown) [drawing 266]	4.41
CCCCCCCCCCCCCCCCNC(CC(=O)NCC(C)(C)CNC(=O)C(O)C(Cc1ccccc1)NCCCCCCCCCCCCCCCC)Cc1cc(F)ccc1F (stereo not shown) [drawing 272]	4.96

[in] Quick one: give measured pIC50 for CC(C)(CNC(=O)CC(N)Cc1cc(F)ccc1F)CNC(=O)C(O)C(N)Cc1ccc(-c2ccsc2)cc1 (stereo not shown) [drawing 280]
[out] 5.20

[in] Annotate the molecule NC(CC(=O)Nc1ccc(NC(=O)C(O)C(N)Cc2ccccc2)cc1)Cc1cc(F)ccc1F (stereo not shown) [drawing 245] with its measured pIC50.
[out] 4.84

[in] Give pIC50 for CCCCCCCCCC(=O)OC(C(=O)NCC(C)(C)CNC(=O)CC(N)Cc1cc(F)ccc1F)C(N)Cc1ccccc1 (stereo not shown) [drawing 254]
[out] 5.51
